test.protocol: qHTS assay for cell viability of HEK293 cells (AID 743288); further: on the % scale 0 is the no-effect control and ±100 the full control effect; nearly all actives have a fitted effect of over 50% in size
measurement.setup: ATP luminescence (CellTiter-Glo), 18 h, stronger effect = lower value
Records with an inconclusive call do not appear.
attribute.measured: max response (%)
Give just the number in %; leave the unit off.

BrCC(Br)C1CCC(Br)C(Br)C1 (stereo unspecified) = 1.74

Prompt line: What max response value was documented for this molecule, ClCC(Br)CBr (stereo unspecified) ?
Response line: -7.97

Prompt line: What max response value was documented for this molecule, C=CCBr ?
Response line: -2.53

Prompt line: What max response value was documented for this molecule, O=C(O)c1cc(Cl)ccc1Cl ?
Response line: -1.88

Prompt line: What max response value was documented for this molecule, CCCCC#N ?
Response line: 2.15

Prompt line: What max response value was documented for this molecule, N#CCc1ccccc1 ?
Response line: -1.92

###

system: Mitogen-activated protein kinase 10 (Mus musculus)
test.protocol: JNK3 AlphaScreen Assay (AID 530);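 further: kinase came from lysate of stimulated human HepG2 cells; signal reports phosphorylation of biotinylated GST-cJun 1-79 at Ser73 with 10 µM ATP; on the % scale 0 is the no-effect control and ±100 the full control effect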
measurement.setup: JNK3 lysate, c-Jun phosphorylation; series mostly up to 57.1 µM
Results filed as inconclusive are left out. Activity calls are given as the source filed them. The call rests on the fitted dose curve; in most records, active means well fitted curve in either direction with a large enough effect (not every such curve was filed as active); inconclusive means small, poorly fitted or top-dose-only effect, or another doubt; inactive means flat fitted curve, though single readings scatter.
attribute.measured: activity change, negative = inhibition

[C-]1=CC=CC1.[C-]1=CC=CC1.[Cl-].[Cl-].[Ti+4] = inactive
CC(C)OS(C)(=O)=O = inactive
O=[As](O)(O)c1ccc(N=Nc2ccc([As](=O)(O)O)cc2)cc1 = 2.69% [at 11.4 µM] (inactive)
Clc1ccc(C(Cl)(Cl)Cl)cc1Cl = inactive
CC(=O)c1c(O)c(C)c(O)c(Cc2c(O)c3c(c(C(=O)/C=C\c4ccccc4)c2O)OC(C)(C)C=C3)c1O = inactive
CCN=C=NCCCN(C)C = -0.714% [at 11.4 µM] (inactive)

Prompt line: What activity change, negative = inhibition value was documented for this molecule, CCc1ccc(CCN2CCCCC2)nc1 ?
Response line: 1.06% [at 11.4 µM] (inactive)

Prompt line: What activity change, negative = inhibition value was documented for this molecule, O=C(O)[C@H](Cc1cnc[nH]1)N1C(=O)c2ccccc2C1=O ?
Response line: 41.7% [at 11.4 µM] (inactive)

Prompt line: What activity change, negative = inhibition value was documented for this molecule, Clc1ccc(Cl)c(Cl)c1 ?
Response line: inactive

Prompt line: What activity change, negative = inhibition value was documented for this molecule, CC1=C2C(=O)[C@@H]3[C@@H](CC=C4C[C@@H](O)CC[C@@]43C)[C@H]2CC[C@@]12O[C@H]1C[C@H](C)CN[C@H]1[C@@H]2C ?
Response line: 0.541% [at 11.4 µM] (inactive)

Prompt line: What activity change, negative = inhibition value was documented for this molecule, O=S(=O)(Nc1nccs1)c1ccc([As](=O)(O)O)cc1 ?
Response line: 2.72% [at 11.4 µM] (inactive)

Prompt line: What activity change, negative = inhibition value was documented for this molecule, Nc1ccccc1-c1ccccc1 ?
Response line: inactive

Prompt line: What activity change, negative = inhibition value was documented for this molecule, Nc1ccc([N+](=O)[O-])cc1N ?
Response line: inactive

###

test.protocol: Cell Viability - LYMP2-007 (AID 979);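 further: cells exposed to compound for 24 h before reading; nearly all actives have a fitted effect of over 60% in size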
measurement.setup: LYMP2-007 lymphoblastoid cell viability; series mostly up to 92.2 µM
Records with an inconclusive call do not appear. Calls of active or inactive are those of the source. Calls follow the shape of the dose curve; as a rule, active = well fitted cell-killing curve with a large enough effect; inconclusive = small, poorly fitted or top-dose-only effect; inactive = flat fitted curve, though single readings scatter.
Please answer using one outcome listed in y for active, n for inactive

Nc1cc(Cl)ccc1O = n
N#CC(Br)Br = y
CC(C)CON=O = n
Cl/C=C/Cl = n
N#C/C=C/C#N = y
Cc1ccc(N=C=O)cc1N=C=O = n
S=c1[nH]c2ccccc2[nH]1 = n
Cl/C=C\Cl = n
C(CCOCC1CO1)COCC1CO1 (configuration not stated) = n
O=C(O)c1cc(Cl)ccc1Cl = n

Prompt line: Name the outcome recorded for CC(Cl)(Cl)Cl in the assay.
Response line: n

Prompt line: Name the outcome recorded for Oc1cccc(Cl)c1Cl in the assay.
Response line: n
